// data source = patent US8563714B2

TESTED TARGET: human ALX receptor (Homo sapiens)
PROTOCOL: Intracellular calcium measurements (FLIPR), agonistic activity in HEK293-hALXR-Gα16 cells
EXPERIMENTAL CONTEXT: Fluo-4 calcium FLIPR, normalized to WKYMVm 10 nM
QUANTITY: EC50 (nM)

Check out these entries, answers already filled in.
# COMPOUND, TESTED TARGET, MEASUREMENT UNITS, EC50
rows = [
    ("O=C(NCCCCN1CCCC1)[C@H]1[C@H](C(=O)Nc2nc(-c3ccccc3)ns2)[C@@H]2C=C[C@H]1C21CC1 (racemic)", "human ALX receptor (Homo sapiens)", "nM", 9890),
    ("CCCC(=O)NC[C@H]1[C@H](C(=O)Nc2ccc(Br)cc2)[C@@H]2C=C[C@H]1C21CC1 (racemic)", "human ALX receptor (Homo sapiens)", "nM", 505),
    ("CCCCCCNC(=O)[C@H]1[C@H](C(=O)Nc2ccc(Br)cc2)[C@@H]2C=C[C@H]1C21CC1 (racemic)", "human ALX receptor (Homo sapiens)", "nM", 73),
]

[I] O=C(NCc1ccoc1)[C@H]1[C@H](C(=O)Nc2ccc(Br)cc2)[C@@H]2C=C[C@H]1C21CC1 (racemic)
[II] O=C(NCC1CCCN1)C1C(C(=O)Nc2ccc(Br)cc2)C2C=CC1C21CC1 (mixture of isomers)
Return label of the item with the larger EC50. Candidates: I , II . Response format: the label of the selected entry.
I
(I: 13 nM, II: 2 nM)

[A] COCCCNC(=O)[C@H]1[C@H](C(=O)Nc2ccc(Br)cc2)[C@@H]2CC[C@H]1C21CC1 (racemic)
[B] CC(C)(C)OC(=O)N1CC(NC(=O)[C@H]2[C@H](C(=O)Nc3ccc(Br)cc3)[C@@H]3C=C[C@H]2C32CC2)C1 (racemic)
[C] O=C(NCCCN1CCCC1)[C@H]1[C@H](C(=O)Nc2ccc(Br)cc2)[C@@H]2CC[C@H]1C21CC1 (racemic)
[D] CC(C)CCN1CCC(NC(=O)[C@H]2[C@H](C(=O)NCCc3ccc(Cl)cc3)[C@@H]3C=C[C@H]2C32CC2)CC1
Give the ascending ranking of the items by reported EC50. Put the labels in the requested order and list them out.
A, C, B, D
(A: 4.8 nM, C: 16 nM, B: 477 nM, D: 10400 nM)

[A] COC(=O)CCCC(=O)NC[C@H]1[C@H](C(=O)Nc2ccc(Br)cc2)[C@@H]2C=C[C@H]1C21CC1 (racemic)
[B] O=C(NCCCCN1CCCC1)[C@H]1[C@H](C(=O)Nc2ccc(C(F)(F)F)nc2)[C@@H]2C=C[C@H]1C21CC1 (racemic)
Return label of the item with the larger EC50. Candidates: A , B . Response format: the label of the selected entry.
A
(A: 88 nM, B: 11 nM)

----------
TESTED TARGET: human ALX receptor (Homo sapiens)
Sequence (P25090 1-351): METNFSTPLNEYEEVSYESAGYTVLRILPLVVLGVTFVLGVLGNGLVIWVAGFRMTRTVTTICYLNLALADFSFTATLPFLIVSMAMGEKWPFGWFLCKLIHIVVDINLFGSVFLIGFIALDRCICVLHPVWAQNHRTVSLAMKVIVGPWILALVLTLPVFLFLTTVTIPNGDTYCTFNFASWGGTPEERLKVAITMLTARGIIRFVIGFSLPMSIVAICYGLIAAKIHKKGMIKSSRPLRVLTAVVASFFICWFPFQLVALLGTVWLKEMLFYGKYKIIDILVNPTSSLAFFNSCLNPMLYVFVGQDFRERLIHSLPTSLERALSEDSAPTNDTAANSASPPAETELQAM
PROTOCOL: Intracellular calcium measurements (FLIPR), agonistic activity in HEK293-hALXR-Gα16 cells
EXPERIMENTAL CONTEXT: Fluo-4 calcium FLIPR, normalized to WKYMVm 10 nM
Protocol: The ALX receptor and FPRL2 agonistic activities of the compounds of formula (I) are determined in accordance with the following experimental method. Intracellular Calcium Measurements: Cells expressing recombinant human ALX receptor and the G-protein Gα16 (HEK293-hALXR-Gα16) were grown to 80% confluency in Growing Medium (GM). […] Changes in fluorescence were monitored before and after the addition of test compounds at lex=488 nm and lem=540 nm. […]
pEC50: −log10 of the molar value.
QUANTITY: pEC50

# COMPOUND, QUANTITY, MEASURED
records = [
    ("O=C(NC[C@H]1[C@H](C(=O)Nc2ccc(Br)cc2)[C@@H]2C=C[C@H]1C21CC1)C1CCCC1 (racemic) [Example 179]", "pEC50", 6.70),
    ("Cc1cc(CNC(=O)[C@H]2[C@H](C(=O)NCCCCN3CCCC3)[C@H]3C=C[C@@H]2C32CC2)no1 (racemic) [Example 255]", "pEC50", 7.40),
    ("CC(C)(C)OC(=O)N1CCC(NC(=O)C2C(C(=O)Nc3ccc(Br)cc3)C3C=CC2C32CC2)C1 (mixture of isomers) [Example 14]", "pEC50", 8.92),
]

[P] O=C(NCC1CCCNC1)[C@H]1[C@H](C(=O)Nc2ncc(Br)s2)[C@@H]2CC[C@H]1C21CC1 (stereo partly drawn) [Example 418]
[Q] CCN(CC)CCCCNC(=O)[C@H]1[C@H](C(=O)NCc2nc(C(C)=O)cs2)[C@@H]2C=C[C@H]1C21CC1 (racemic) [Example 262]
[R] COc1ccc(CNC(=O)[C@H]2[C@H](C(=O)NCCCCN3CCCC3)[C@H]3C=C[C@@H]2C32CC2)c(F)c1F (racemic) [Example 227]
Give the ascending ranking of the items by reported pEC50. Put the labels in the requested order and list them out.
R, Q, P
